Field: Ratio OD(Variant)/OD(WT). Provide a value for each of the binders that follow.
assay-target: HRgpA-6H (Porphyromonas gingivalis) (UniProt P28784)
test-name: ELISA on coated HRgpA-6H, OD relative to parental Fab

*Q* Looking for the measured Ratio OD(Variant)/OD(WT) of KB001 mouse Fab variant VL I98M (Fab, V domains shown) VH: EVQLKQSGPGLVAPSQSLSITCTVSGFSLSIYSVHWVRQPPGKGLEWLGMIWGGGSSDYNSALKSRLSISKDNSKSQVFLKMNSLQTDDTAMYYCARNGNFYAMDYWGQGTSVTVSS VL: QIVLTQSPAIMSASLGERVTMTCTASSSVSSSFLHWYQQKPGSSPQLWIYSTSNLASGVPARFSGSGSGTSYSLTISSMEAEDAATYYCHQYHHSPYMYTFGGGTKLEIK , can you help?
*A* 0.833 fold

*Q* Fill in: Ratio OD(Variant)/OD(WT) of KB001 mouse Fab variant VL H94F (Fab, V domains shown) VH: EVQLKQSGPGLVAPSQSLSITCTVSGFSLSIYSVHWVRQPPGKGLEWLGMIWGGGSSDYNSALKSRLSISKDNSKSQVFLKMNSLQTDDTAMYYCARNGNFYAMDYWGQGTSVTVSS VL: QIVLTQSPAIMSASLGERVTMTCTASSSVSSSFLHWYQQKPGSSPQLWIYSTSNLASGVPARFSGSGSGTSYSLTISSMEAEDAATYYCHQYHFSPYIYTFGGGTKLEIK is ___
*A* 0.838 fold

*Q* Fill in the blank: the reported Ratio OD(Variant)/OD(WT) of KB001 mouse Fab variant VL S57W (Fab, V domains shown) VH: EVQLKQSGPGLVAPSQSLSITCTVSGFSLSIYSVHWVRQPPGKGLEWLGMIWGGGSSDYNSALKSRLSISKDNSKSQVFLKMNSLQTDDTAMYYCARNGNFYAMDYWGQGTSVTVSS VL: QIVLTQSPAIMSASLGERVTMTCTASSSVSSSFLHWYQQKPGSSPQLWIYSTSNLAWGVPARFSGSGSGTSYSLTISSMEAEDAATYYCHQYHHSPYIYTFGGGTKLEIK is ____.
*A* 0.961 fold

*Q* Entry KB001 mouse Fab variant VL Q91M (Fab, V domains shown) VH: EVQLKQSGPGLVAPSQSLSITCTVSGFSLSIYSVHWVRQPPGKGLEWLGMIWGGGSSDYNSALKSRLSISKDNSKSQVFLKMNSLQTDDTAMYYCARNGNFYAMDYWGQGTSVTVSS VL: QIVLTQSPAIMSASLGERVTMTCTASSSVSSSFLHWYQQKPGSSPQLWIYSTSNLASGVPARFSGSGSGTSYSLTISSMEAEDAATYYCHMYHHSPYIYTFGGGTKLEIK has what Ratio OD(Variant)/OD(WT)?
*A* 0.879 fold

*Q* Which Ratio OD(Variant)/OD(WT) reading was recorded for the binder KB001 mouse Fab variant VL Y97L (Fab, V domains shown) VH: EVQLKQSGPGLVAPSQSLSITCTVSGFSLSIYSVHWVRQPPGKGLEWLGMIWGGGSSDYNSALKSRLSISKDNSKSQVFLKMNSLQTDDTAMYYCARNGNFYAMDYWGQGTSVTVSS VL: QIVLTQSPAIMSASLGERVTMTCTASSSVSSSFLHWYQQKPGSSPQLWIYSTSNLASGVPARFSGSGSGTSYSLTISSMEAEDAATYYCHQYHHSPLIYTFGGGTKLEIK ?
*A* 0.937 fold
